target: UniProt:C0L7I7; test: cell-based; parameters: species or system Xenopus laevis oocytes
reported metric: IC50

Entry CCOC(=O)C1(C(=O)OCC)Nc2c([S+]([O-])C(F)(F)F)c(C#N)nn2-c2c(Cl)cc(C(F)(F)F)cc21 (stereo not shown) ; assay system UniProt:C0L7I7; IC50 recorded at > 30 µM

---

Biological target: PxRDL2 (Plutella xylostella)
Sequence (C0L7I7 30-520): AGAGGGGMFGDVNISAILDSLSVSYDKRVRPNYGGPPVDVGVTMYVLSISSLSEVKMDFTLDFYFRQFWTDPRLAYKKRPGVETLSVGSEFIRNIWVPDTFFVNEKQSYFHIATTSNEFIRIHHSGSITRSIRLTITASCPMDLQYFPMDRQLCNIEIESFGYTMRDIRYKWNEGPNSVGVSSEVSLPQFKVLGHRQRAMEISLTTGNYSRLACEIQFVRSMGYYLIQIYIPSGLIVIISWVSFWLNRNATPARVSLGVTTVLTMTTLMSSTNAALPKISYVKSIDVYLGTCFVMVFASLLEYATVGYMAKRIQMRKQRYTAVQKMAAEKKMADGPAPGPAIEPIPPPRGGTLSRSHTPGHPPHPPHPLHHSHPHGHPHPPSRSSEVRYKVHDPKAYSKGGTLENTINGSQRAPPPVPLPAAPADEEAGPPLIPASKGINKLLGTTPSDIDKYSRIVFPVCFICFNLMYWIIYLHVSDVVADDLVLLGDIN
Assay: two-electrode voltage clamp, Xenopus laevis oocytes
Format: cell-based
A collection of compounds and their measured IC50
Give a bare numeral; the unit nM is implied.

>  <compound>
CON=CNC(=O)c1ccc(C2=NOC(c3cc(Cl)cc(Cl)c3)(C(F)(F)F)C2)cc1C (centres unmarked) [fluxametamide]

>  <unit abbrev>
nM

>  <IC50>
17

$$$$

Lab note: Cc1cc(C2=NOC(c3cc(Cl)cc(Cl)c3)(C(F)(F)F)C2)ccc1C(=O)NCC(=O)NCC(F)(F)F (centres unmarked) [fluralaner] gave IC50 of 18

Data provenance is paper doi:10.1101/2021.03.24.436736v2.
